Target: Pancreatic elastase (Sus scrofa) (UniProt P08419+P00772)
Experiment: Inactivation of porcine pancreatic elastase (PPE) expressed as rate constant.
Type: functional
observation type: second-order inactivation rate constant (kobs/[I]) (M⁻¹ s⁻¹)
Numbers only, in M⁻¹ s⁻¹.

These recorded examples may help you get a feel for the data.
1. COc1oc(=O)c2cc(NC(=O)OCc3ccccc3)ccc2c1Cl ... 260
2. COc1oc(=O)c2cc(NC(=O)CCc3ccccc3)ccc2c1Cl ... 3100

State the recorded second-order inactivation rate constant (kobs/[I]) for this entry: `COc1oc(=O)c2cc(NC(C)=O)ccc2c1Cl`
2300

Hey, just so you know, these numbers are from ChEMBL document CHEMBL1125411.
